Each item that follows carries a reported MIC.
Test system: Cryptococcus neoformans
METRIC NAME: MIC

> print(dat)
                                   molecule            target.system      result
1  C#CCN(C)c1nc(NCCCCC2CCN(Cc3ccccc3)CC2)c(C#N)c(-c2ccccc2)c1C#N  Cryptococcus neoformans     8 µg/mL
2   N#Cc1c(N)nc(Sc2ccccc2)c(C#N)c1-c1ccccc1  Cryptococcus neoformans  > 32 µg/mL
3        Cl.Nc1c2c(nc3[nH]c4ccccc4c13)CCCC2  Cryptococcus neoformans  > 32 µg/mL

###

Each item that follows carries a reported MIC.
Test system: Pseudomonas aeruginosa
PROCEDURE SUMMARY: microbe, parasite or virus in culture
COND: ATCC 27853, 18 h, ASSAY_TEST Inhibition of Bacterial Growth, detection method Absorption (OD600), MEDIA CAMHB, plate type 384well, NBS, CORNING #3640
Description: Antibacterial activity against Pseudomonas aeruginosa ATCC 27853 (CO-ADD:GN_042); MIC in CAMBH media using NBS plates, by OD(600)
METRIC NAME: MIC

> print(dat)
                                    molecule  metric.name      result
 1  C=C=CCN(C)Cc1cc2cc(OCc3ccccc3)ccc2n1C.O=C(O)C(=O)O          MIC  > 32 µg/mL
 2                  Cc1ccc2nc(Cl)c(C=O)cc2c1          MIC  > 32 µg/mL
 3  CC1CC(=O)Nc2c1c(Br)nc1nc3c(c(N)c21)CCCC3 (configuration not stated)          MIC  > 32 µg/mL
 4  C#CCN(C)c1nc(NCCCCC2CCN(Cc3ccccc3)CC2)c(C#N)c(-c2ccccc2)c1C#N.Cl          MIC  > 32 µg/mL
 5                      Oc1ccc(CCl)c2cccnc12          MIC    32 µg/mL
 6                      Brc1nc(Br)c(Br)[nH]1          MIC  > 32 µg/mL
 7  C#CCNc1nc(NCCC2CCN(Cc3ccccc3)CC2)c(C#N)c(-c2ccccc2)c1C#N          MIC  > 32 µg/mL
 8        Cl.Nc1c2c(nc3[nH]c4ccccc4c13)CCCC2          MIC    16 µg/mL
 9                       OCc1ccc(O)c2ncccc12          MIC    32 µg/mL
10       COc1ccc2[nH]c3nc4c(c(N)c3c2c1)CCCC4          MIC    32 µg/mL
11                    COc1nc(Cl)c(C#N)cc1C#N          MIC  > 32 µg/mL
12  N#CC1=C(N)Oc2c(ccc3ccccc23)C1c1ccccc1[N+](=O)[O-] (configuration not stated)          MIC  > 32 µg/mL

###

Each item that follows carries a reported MIC.
Test system: Cryptococcus neoformans
METRIC NAME: MIC

> print(dat)
                                   compound      result
1  N#Cc1c(NCCC2CCN(Cc3ccccc3)CC2)nc(NCCC2CCN(Cc3ccccc3)CC2)c(C#N)c1-c1ccccc1  > 32 µg/mL
2    C#CCN(C)c1nc(N)c(C#N)c(-c2ccccc2)c1C#N  > 32 µg/mL
3  N#C/C(=C\c1ccc([N+](=O)[O-])cc1)C(=O)c1ccccc1    32 µg/mL
4                     COc1ccc(CCl)c2cccnc12  > 32 µg/mL
5  CCOC(=O)C1=C(C)OC(N)=C(C#N)C1c1ccc(Cl)cc1 (stereo unspecified)  > 32 µg/mL
6                    COc1nc(Cl)c(C#N)cc1C#N  > 32 µg/mL
